Tested on: P. aeruginosa PAO1
run-description: Sensitization to antibiotics: MIC in medium supplemented with phytoglycogen
Type: cell-based, Pseudomonas aeruginosa
measurement-context: P. aeruginosa; 0.5 mg cationized phytoglycogen · ml^−1 Mueller-Hinton Broth
Text: […]
quantity-name: ↓ Fold-change in MIC (cationized phytoglycogen) MIC.5 mg/ml

compound	result-value
NC[C@H]1O[C@H](O[C@H]2[C@H](O)[C@@H](O[C@H]3O[C@H](CO)[C@@H](O)[C@H](N)[C@H]3O)[C@H](N)C[C@@H]2N)[C@H](N)C[C@@H]1O [tobramycin]	2 fold

* * *

System: P. aeruginosa PAO1
run-description: Sensitization to antibiotics: MIC in medium supplemented with phytoglycogen
Type: cell-based, Pseudomonas aeruginosa
measurement-context: P. aeruginosa; 0.5 mg cationized phytoglycogen · ml^−1 Mueller-Hinton Broth
quantity-name: ↓ Fold-change in MIC (cationized phytoglycogen) MIC.5 mg/ml

compound-smiles	result-value
CN(C)[C@@H]1C(O)=C(C(N)=O)C(=O)[C@@]2(O)C(O)=C3C(=O)c4c(O)cccc4[C@@](C)(O)[C@H]3C[C@@H]12	↓ 8 fold
CC1(C)S[C@@H]2[C@H](NC(=O)[C@H](N)c3ccccc3)C(=O)N2[C@H]1C(=O)O	↓ 8 fold

* * *

System: P. aeruginosa PAO1
run-description: Sensitization to antibiotics: MIC in medium supplemented with phytoglycogen
Assay type: cell-based, Pseudomonas aeruginosa
measurement-context: P. aeruginosa; 10 mg cationized phytoglycogen · ml^−1 Mueller-Hinton Broth
quantity-name: ↓ Fold-change in MIC (cationized phytoglycogen) MIC10 mg/ml

compound	target-entity	result-value
CC[C@H]1OC(=O)[C@H](C)[C@@H](O[C@H]2C[C@@](C)(OC)[C@@H](O)[C@H](C)O2)[C@H](C)[C@@H](O[C@@H]2O[C@H](C)C[C@H](N(C)C)[C@H]2O)[C@](C)(O)C[C@@H](C)C(=O)[C@H](C)[C@@H](O)[C@]1(C)O	P. aeruginosa PAO1	1-2 fold
O=C(N[C@H](CO)[C@H](O)c1ccc([N+](=O)[O-])cc1)C(Cl)Cl	P. aeruginosa PAO1	2 fold
CC1(C)S[C@@H]2[C@H](NC(=O)C(C(=O)O)c3ccccc3)C(=O)N2[C@H]1C(=O)O (some centres unmarked)	P. aeruginosa PAO1	↓ 8-16 fold
CN(C)[C@@H]1C(O)=C(C(N)=O)C(=O)[C@@]2(O)C(O)=C3C(=O)c4c(O)cccc4[C@@](C)(O)[C@H]3C[C@@H]12	P. aeruginosa PAO1	2 fold
CN[C@H](CC(C)C)C(=O)N[C@H]1C(=O)N[C@@H](CC(N)=O)C(=O)N[C@H]2C(=O)N[C@H]3C(=O)N[C@H](C(=O)N[C@H](C(=O)O)c4cc(O)cc(O)c4-c4cc3ccc4O)[C@H](O)c3ccc(c(Cl)c3)Oc3cc2cc(c3O[C@@H]2O[C@H](CO)[C@@H](O)[C@H](O)[C@H]2O[C@H]2C[C@](C)(N)[C@H](O)[C@H](C)O2)Oc2ccc(cc2Cl)[C@H]1O	P. aeruginosa PAO1	↓ 4 fold
NC[C@H]1O[C@H](O[C@H]2[C@H](O)[C@@H](O[C@H]3O[C@H](CO)[C@@H](O)[C@H](N)[C@H]3O)[C@H](N)C[C@@H]2N)[C@H](N)C[C@@H]1O	P. aeruginosa PAO1	1 fold
CO[C@@H]1[C@@H](OC(N)=O)[C@@H](O)[C@H](Oc2ccc3c(O)c(NC(=O)c4ccc(O)c(CC=C(C)C)c4)c(=O)oc3c2C)OC1(C)C	P. aeruginosa PAO1	↓ 4 fold
CC1(C)S[C@@H]2[C@H](NC(=O)[C@H](N)c3ccccc3)C(=O)N2[C@H]1C(=O)O	P. aeruginosa PAO1	2 fold
CCn1cc(C(=O)O)c(=O)c2ccc(C)nc21	P. aeruginosa PAO1	↓ 8-16 fold

* * *

Test system: E. coli AB264
run-description: Sensitization to antibiotics: MIC in medium supplemented with phytoglycogen
Format: cell-based
measurement-context: Escherichia coli; cationized phytoglycogen at half-strength of its MIC

compound	target-entity	fold-change reduction in MIC, CP0.5
O=C(N[C@H](CO)[C@H](O)c1ccc([N+](=O)[O-])cc1)C(Cl)Cl [chloramphenicol]	E. coli AB264	1-2 fold

* * *

Test system: B. subtilis 168
run-description: Sensitization to antibiotics: MIC in medium supplemented with phytoglycogen
Type: cell-based
measurement-context: Bacillus subtilis; cationized phytoglycogen at 0.25 of its MIC

compound	measure-unit	fold-change reduction in MIC, CP0.25
CC1(C)S[C@@H]2[C@H](NC(=O)C(C(=O)O)c3ccccc3)C(=O)N2[C@H]1C(=O)O (stereo partly drawn)	fold	2
CC1(C)S[C@@H]2[C@H](NC(=O)[C@H](N)c3ccccc3)C(=O)N2[C@H]1C(=O)O	fold	1
CN[C@H](CC(C)C)C(=O)N[C@H]1C(=O)N[C@@H](CC(N)=O)C(=O)N[C@H]2C(=O)N[C@H]3C(=O)N[C@H](C(=O)N[C@H](C(=O)O)c4cc(O)cc(O)c4-c4cc3ccc4O)[C@H](O)c3ccc(c(Cl)c3)Oc3cc2cc(c3O[C@@H]2O[C@H](CO)[C@@H](O)[C@H](O)[C@H]2O[C@H]2C[C@](C)(N)[C@H](O)[C@H](C)O2)Oc2ccc(cc2Cl)[C@H]1O	fold	1

* * *

System: P. aeruginosa PAO1
run-description: Sensitization to antibiotics: MIC in medium supplemented with phytoglycogen
Type: cell-based, Pseudomonas aeruginosa
measurement-context: P. aeruginosa; 1 mg cationized phytoglycogen · ml^−1 Mueller-Hinton Broth
From the text: […]
quantity-name: ↓ Fold-change in MIC (cationized phytoglycogen) MIC1 mg/ml

compound-smiles	result-value
O=C(N[C@H](CO)[C@H](O)c1ccc([N+](=O)[O-])cc1)C(Cl)Cl	↓ 8 fold
CN(C)[C@@H]1C(O)=C(C(N)=O)C(=O)[C@@]2(O)C(O)=C3C(=O)c4c(O)cccc4[C@@](C)(O)[C@H]3C[C@@H]12	↓ 8 fold
CC[C@H]1OC(=O)[C@H](C)[C@@H](O[C@H]2C[C@@](C)(OC)[C@@H](O)[C@H](C)O2)[C@H](C)[C@@H](O[C@@H]2O[C@H](C)C[C@H](N(C)C)[C@H]2O)[C@](C)(O)C[C@@H](C)C(=O)[C@H](C)[C@@H](O)[C@]1(C)O	↓ 8 fold
NC[C@H]1O[C@H](O[C@H]2[C@H](O)[C@@H](O[C@H]3O[C@H](CO)[C@@H](O)[C@H](N)[C@H]3O)[C@H](N)C[C@@H]2N)[C@H](N)C[C@@H]1O	2 fold
CCn1cc(C(=O)O)c(=O)c2ccc(C)nc21	↓ 16-32 fold
CO[C@@H]1[C@@H](OC(N)=O)[C@@H](O)[C@H](Oc2ccc3c(O)c(NC(=O)c4ccc(O)c(CC=C(C)C)c4)c(=O)oc3c2C)OC1(C)C	↓ 16-32 fold

* * *

System: E. coli AB264
run-description: Sensitization to antibiotics: MIC in medium supplemented with phytoglycogen
Assay type: cell-based
measurement-context: Escherichia coli; cationized phytoglycogen at 0.25 of its MIC

molecule	fold-change reduction in MIC, CP0.25
CC1(C)S[C@@H]2[C@H](NC(=O)[C@H](N)c3ccccc3)C(=O)N2[C@H]1C(=O)O	1-2 fold
CC1(C)S[C@@H]2[C@H](NC(=O)C(C(=O)O)c3ccccc3)C(=O)N2[C@H]1C(=O)O (stereo partly drawn)	↓4-8 ^ fold
O=C(N[C@H](CO)[C@H](O)c1ccc([N+](=O)[O-])cc1)C(Cl)Cl	1-2 fold
CC1(C)S[C@@H]2[C@H](NC(=O)Cc3ccccc3)C(=O)N2[C@H]1C(=O)O	↓4-8 ^ fold
CC[C@H]1OC(=O)[C@H](C)[C@@H](O[C@H]2C[C@@](C)(OC)[C@@H](O)[C@H](C)O2)[C@H](C)[C@@H](O[C@@H]2O[C@H](C)C[C@H](N(C)C)[C@H]2O)[C@](C)(O)C[C@@H](C)C(=O)[C@H](C)[C@@H](O)[C@]1(C)O	1-2 fold

* * *

Test system: B. subtilis 168
run-description: Sensitization to antibiotics: MIC in medium supplemented with phytoglycogen
Assay type: cell-based
measurement-context: Bacillus subtilis; cationized phytoglycogen at 0.25 of its MIC
quantity-name: fold-change reduction in MIC, CP0.25

compound	result-value
O=C(N[C@H](CO)[C@H](O)c1ccc([N+](=O)[O-])cc1)C(Cl)Cl [chloramphenicol]	↓2-4 fold
CC[C@H]1OC(=O)[C@H](C)[C@@H](O[C@H]2C[C@@](C)(OC)[C@@H](O)[C@H](C)O2)[C@H](C)[C@@H](O[C@@H]2O[C@H](C)C[C@H](N(C)C)[C@H]2O)[C@](C)(O)C[C@@H](C)C(=O)[C@H](C)[C@@H](O)[C@]1(C)O [erythromycin]	↓2-4 fold

Reference source: patent US20190125896A1
